# test-target: T1, human serum albumin (human, UniProt P02768 25-609)
# T1 construct: Immobilised on SPR chips; also added in solution in the FcRn occupancy assays; also called HSA; humanSA
# run-description: SPR Biacore 8K+ SCK, albumin on chip, pH 7.4

[
  {
    "binder": "Alb23 G99A (VHH, VHH alone) VHH: EVQLLESGGGLVQPGGSLRLSCAASGFTFRSFGMSWVRQAPGKGPEWVSSISGSGSDTLYADSVKGRFTISRDNSKNTLYLQMNSLRPEDTAVYYCTIAGSLSRSSQGTLVTVSS",
    "result-units": "s⁻¹",
    "koff": 0.0954
  },
  {
    "binder": "Alb23 L59A (VHH, VHH alone) VHH: EVQLLESGGGLVQPGGSLRLSCAASGFTFRSFGMSWVRQAPGKGPEWVSSISGSGSDTAYADSVKGRFTISRDNSKNTLYLQMNSLRPEDTAVYYCTIGGSLSRSSQGTLVTVSS",
    "result-units": "s⁻¹",
    "koff": 0.0451
  },
  {
    "binder": "Alb23 G33A/S101A (VHH, VHH alone) VHH: EVQLLESGGGLVQPGGSLRLSCAASGFTFRSFAMSWVRQAPGKGPEWVSSISGSGSDTLYADSVKGRFTISRDNSKNTLYLQMNSLRPEDTAVYYCTIGGALSRSSQGTLVTVSS",
    "result-units": "s⁻¹",
    "koff": 0.133
  },
  {
    "binder": "Alb23 G100A (VHH, VHH alone) VHH: EVQLLESGGGLVQPGGSLRLSCAASGFTFRSFGMSWVRQAPGKGPEWVSSISGSGSDTLYADSVKGRFTISRDNSKNTLYLQMNSLRPEDTAVYYCTIGASLSRSSQGTLVTVSS",
    "result-units": "s⁻¹",
    "koff": 0.0232
  },
  {
    "binder": "Alb23 M34A (VHH, VHH alone) VHH: EVQLLESGGGLVQPGGSLRLSCAASGFTFRSFGASWVRQAPGKGPEWVSSISGSGSDTLYADSVKGRFTISRDNSKNTLYLQMNSLRPEDTAVYYCTIGGSLSRSSQGTLVTVSS",
    "result-units": "s⁻¹",
    "koff": 0.226
  }
]
